Biological target: T1, chromodomain of CDYL2 (human) (UniProt Q8N8U2)
T1 sequence: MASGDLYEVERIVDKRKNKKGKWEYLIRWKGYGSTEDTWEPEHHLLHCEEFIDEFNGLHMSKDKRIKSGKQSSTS
Assay: AlphaScreen or HTRF
pIC50: −log10 of the molar value. Square brackets hold non-standard residues; d marks the D form. Ends that are not written are not given here. * marks the point of attachment. Lys(Me3) = C[N+](C)(C)CCCC[C@H](N)C(=O)O; Bz = O=C(c1ccccc1)*
observed.property: pIC50

INSERT INTO measurements (binder, test_value) VALUES
  ('Bz-AL[Lys(Me3)]S-OMe (SMILES COC(=O)[C@H](CO)NC(=O)[C@H](CCCC[N+](C)(C)C)NC(=O)[C@H](CC(C)C)NC(=O)[C@H](C)NC(=O)c1ccccc1) [compound 4]', 4.80),
  ('Bz-FAL[Lys(Me3)] (also: C-terminal R2 = -H in place of -CO-Ser-OMe (no Ser)) [compound 7]', 4.43);
